B1: LINE1-full (parent)
chain: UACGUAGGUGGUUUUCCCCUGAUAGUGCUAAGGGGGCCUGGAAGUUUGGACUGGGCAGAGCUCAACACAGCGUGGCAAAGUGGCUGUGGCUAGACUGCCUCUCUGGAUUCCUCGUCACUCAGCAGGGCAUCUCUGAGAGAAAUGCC

- Variants of: B1
- assay comment: self-cleavage, relative activity (ratio to wild type); higher = more cleavage; in vitro, sequencing; the parent is a self-cleaving ribozyme
Param threshold (0.2) applies to self-cleavage; output 1 (yes) when value >= threshold, 0 (no) when value < threshold.

| mutation key | discrete label |
| --- | --- |
| U91C G122A | 1 (yes) |
| G21U G72A | 1 (yes) |
| G70A A138G | 1 (yes) |
| A43U A59G | 0 (no) |
| U87G | 1 (yes) |
| C18U G60A | 0 (no) |

Challenge: Tell me whether self-cleavage is at least 0.2 here: A92G U96C
Response given: 1 (yes)

Reference for the values: the RNAGym collection of RNA variant scans (doi:10.7554/elife.90254)
